target: T1, human GIP receptor (GIPR) (human), P48546
T1 chain: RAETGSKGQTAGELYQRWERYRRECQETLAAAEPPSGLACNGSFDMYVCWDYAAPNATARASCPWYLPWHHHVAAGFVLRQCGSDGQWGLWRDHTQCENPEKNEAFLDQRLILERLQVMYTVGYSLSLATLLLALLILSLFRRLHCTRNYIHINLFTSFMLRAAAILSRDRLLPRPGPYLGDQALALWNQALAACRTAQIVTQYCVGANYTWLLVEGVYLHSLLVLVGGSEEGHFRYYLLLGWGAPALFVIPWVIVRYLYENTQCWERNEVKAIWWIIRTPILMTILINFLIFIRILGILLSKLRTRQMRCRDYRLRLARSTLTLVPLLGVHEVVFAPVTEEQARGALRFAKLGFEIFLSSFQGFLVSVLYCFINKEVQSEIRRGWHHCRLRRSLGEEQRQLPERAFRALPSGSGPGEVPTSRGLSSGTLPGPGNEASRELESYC
protocol: competition, 125I-hGIP
details: modification not given
pIC50: −log10 of the molar value.

>  <binder>
EGTFISDYSIAMDKIKQQDFVNWLLAQK [hGIP(3-30)H18K]

>  <pIC50>
8.11

$$$$
